test system: H-EMC-SS (Chondrosarcoma); assay: Bliss excess, mean over the matrix (fraction); higher = more synergy
Answer each item with its documented Bliss excess.
Numbers only.

Cc1c2c(nn1C)CSCc1cc(n(C)n1)CSc1cc(c3ccccc3c1)OCCCc1c(C(=O)O)n(C)c3c-2c(Cl)ccc13 [AZD5991] + CC(=O)O[C@H]1C(=O)[C@@]2(C)[C@H]([C@H](OC(=O)c3ccccc3)[C@]3(O)C[C@H](OC(=O)[C@H](O)[C@@H](NC(=O)c4ccccc4)c4ccccc4)C(C)=C1C3(C)C)[C@]1(OC(C)=O)CO[C@@H]1C[C@@H]2O [Paclitaxel] (first compound max 1 µM, 7x7, partner max 3 µM) ... 0.0049

Enquiry: Entry under review: Cc1cc2ncnn2cc1Nc1ncc2c(n1)n(C1CCOCC1)c(=O)n2C [AZD7648] + O=C(c1cc(Cc2n[nH]c(=O)c3ccccc23)ccc1F)N1CCN(C(=O)C2CC2)CC1 [Olaparib] (first compound max 10 µM, 7x7, partner max 10 µM) . Reported Bliss excess?
Return: -0.0759

###

system: OCUM-1 (Gastric Carcinoma); experiment: Bliss excess, mean over the matrix (fraction); higher = more synergy
measured endpoint: Bliss excess
Numbers only.

Known results for compounds:
Cc1c2c(nn1C)CSCc1cc(n(C)n1)CSc1cc(c3ccccc3c1)OCCCc1c(C(=O)O)n(C)c3c-2c(Cl)ccc13 [AZD5991] + CC1(C)CCC(CN2CCN(c3ccc(C(=O)NS(=O)(=O)c4ccc(NCC5CCOCC5)c([N+](=O)[O-])c4)c(Oc4cnc5[nH]ccc5c4)c3)CC2)=C(c2ccc(Cl)cc2)C1 [Venetoclax] (first compound max 1 µM, 7x7, partner max 1 µM) ... -0.0182
CS(=O)(=O)CCNCc1ccc(-c2ccc3ncnc(Nc4ccc(OCc5cccc(F)c5)c(Cl)c4)c3c2)o1 [Lapatinib] + NC1(c2ccc(-c3nc4ccn5c(=O)[nH]nc5c4cc3-c3ccccc3)cc2)CCC1 [MK-2206] (first compound max 10 µM, 7x7, partner max 10 µM) ... -0.0313
CCN(CCO)CCCOc1ccc2c(Nc3cc(CC(=O)Nc4cccc(F)c4)[nH]n3)ncnc2c1 [AZD2811] + O=C(c1cc(Cc2n[nH]c(=O)c3ccccc23)ccc1F)N1CCN(C(=O)C2CC2)CC1 [Olaparib] (first compound max 1 µM, 7x7, partner max 10 µM) ... 0.0383
NC1(C(=O)N[C@@H](CCO)c2ccc(Cl)cc2)CCN(c2ncnc3[nH]ccc23)CC1 [Capivasertib] + COc1nnc2ccc(N3CCC(c4ccc(OCCN5CCN(C)C(=O)[C@H]5C)cc4)CC3)nn12 [AZD5153] (first compound max 10 µM, 7x7, partner max 1 µM) ... 0.0318
CN(CCO)CC[C@H](CSc1ccccc1)Nc1ccc(S(=O)(=O)NC(=O)c2ccc(N3CCC([C@@H](O)c4ccccc4-c4ccc(Cl)cc4)CC3)cc2)cc1S(=O)(=O)C(F)(F)F [AZD4320] + Cn1cnc2c(F)c(Nc3ccc(Br)cc3Cl)c(C(=O)NOCCO)cc21 [Selumetinib] (first compound max 1 µM, 7x7, partner max 3 µM) ... 0.0319

Hi! Can you tell me Bliss excess for each of these compounds?
1. Cn1cnc2c(F)c(Nc3ccc(Br)cc3Cl)c(C(=O)NOCCO)cc21 [Selumetinib] + CC(C)n1c(=O)n(C)c2cnc3cc(F)c(-c4ccc(OCCCN5CCCCC5)nc4)cc3c21 [AZD1390] (first compound max 10 µM, 7x7, partner max 0.3 µM)
2. Cc1cc2ncnn2cc1Nc1ncc2c(n1)n(C1CCOCC1)c(=O)n2C [AZD7648] + O=C(c1cc(Cc2n[nH]c(=O)c3ccccc23)ccc1F)N1CCN(C(=O)C2CC2)CC1 [Olaparib] (first compound max 10 µM, 7x7, partner max 10 µM)
3. Cc1c2c(nn1C)CSCc1cc(n(C)n1)CSc1cc(c3ccccc3c1)OCCCc1c(C(=O)O)n(C)c3c-2c(Cl)ccc13 [AZD5991] + Cn1cnc2c(F)c(Nc3ccc(Br)cc3Cl)c(C(=O)NOCCO)cc21 [Selumetinib] (first compound max 1 µM, 7x7, partner max 3 µM)
4. N#Cc1cnc(Nc2cc(NC[C@H]3CNCCO3)c(C(F)(F)F)cn2)cn1 [SRA737] + CCc1c2c(nc3ccc(O)cc13)-c1cc3c(c(=O)n1C2)COC(=O)[C@]3(O)CC [SN-38] (first compound max 10 µM, 7x7, partner max 0.3 µM)
5. C=CCn1c(=O)c2cnc(Nc3ccc(N4CCN(C)CC4)cc3)nc2n1-c1cccc(C(C)(C)O)n1 [AZD1775] + Nc1ccn([C@@H]2O[C@H](CO)[C@@H](O)C2(F)F)c(=O)n1 [Gemcitabine] (first compound max 1 µM, partner max 0.3 µM)

Return:
1. -0.0152
2. -0.0571
3. -0.0034
4. -0.11
5. 0.0616

Hi! Can you tell me Bliss excess for each of these compounds?
1. COc1cccc(OCCCN)c1-c1cc(Nc2cnc(C#N)cn2)n[nH]1 [Prexasertib] + C=CCn1c(=O)c2cnc(Nc3ccc(N4CCN(C)CC4)cc3)nc2n1-c1cccc(C(C)(C)O)n1 [AZD1775] (first compound max 1 µM, partner max 1 µM)
2. COc1cccc2c1C(=O)c1c(O)c3c(c(O)c1C2=O)C[C@@](O)(C(=O)CO)C[C@@H]3O[C@H]1C[C@H](N)[C@H](O)[C@H](C)O1 [Doxorubicin] + Cc1cc2ncnn2cc1Nc1ncc2c(n1)n(C1CCOCC1)c(=O)n2C [AZD7648] (first compound max 1 µM, 7x7, partner max 10 µM)
3. NC1(C(=O)N[C@@H](CCO)c2ccc(Cl)cc2)CCN(c2ncnc3[nH]ccc23)CC1 [Capivasertib] + CCN(CCO)CCCOc1ccc2c(Nc3cc(CC(=O)Nc4cccc(F)c4)[nH]n3)ncnc2c1 [AZD2811] (first compound max 10 µM, 7x7, partner max 1 µM)

Return:
1. 0.0518
2. 0.0162
3. 0.0378

###

test system: JHH-7 (Hepatocellular Carcinoma); assay: combination Emax (second highest fraction inhibited in the dose matrix, 72 h); higher = more inhibition; extreme values may be limits of the assay
Answer each item with its documented combination Emax.
One number for each entry.

CS(=O)(=O)CCNCc1ccc(-c2ccc3ncnc(Nc4ccc(OCc5cccc(F)c5)c(Cl)c4)c3c2)o1 [Lapatinib] + C[C@@H](Oc1cc(-c2cnn(C3CCNCC3)c2)cnc1N)c1c(Cl)ccc(F)c1Cl [Crizotinib] (first compound max 10 µM, 7x7, partner max 10 µM) ... 0.614

Moving on to the next compound.
Enquiry: Checklist item: combination Emax tested on JHH-7 (Hepatocellular Carcinoma), entry NC1(C(=O)N[C@@H](CCO)c2ccc(Cl)cc2)CCN(c2ncnc3[nH]ccc23)CC1 [Capivasertib] + CCN(CCO)CCCOc1ccc2c(Nc3cc(CC(=O)Nc4cccc(F)c4)[nH]n3)ncnc2c1 [AZD2811] (first compound max 10 µM, 7x7, partner max 1 µM) , value?
Return: 0.294

###

Answer each item with its documented Bliss excess.
tested on: NCI-H2405 (Lung Adenocarcinoma); assay: Bliss excess, mean over the matrix (fraction); higher = more synergy
Answers are plain numbers.

Known results for molecules:
COc1cc2c(cc1OCCCCCOc1cc3c(cc1OC)C(=O)N1C=C(C)C[C@H]1C=N3)N=C[C@@H]1CC(C)=CN1C2=O [SG3199] + O=C(c1cc(Cc2n[nH]c(=O)c3ccccc23)ccc1F)N1CCN(C(=O)C2CC2)CC1 [Olaparib] (first compound max 0.001 µM, 7x7, partner max 10 µM) ... -0.043
C[C@@H]1COCCN1c1cc(C2([S@](C)(=N)=O)CC2)nc(-c2ccnc3[nH]ccc23)n1 [AZD6738] + O=C(c1cc(Cc2n[nH]c(=O)c3ccccc23)ccc1F)N1CCN(C(=O)C2CC2)CC1 [Olaparib] (first compound max 10 µM, 7x7, partner max 10 µM) ... 0.0132
CN(CCO)CC[C@H](CSc1ccccc1)Nc1ccc(S(=O)(=O)NC(=O)c2ccc(N3CCC([C@@H](O)c4ccccc4-c4ccc(Cl)cc4)CC3)cc2)cc1S(=O)(=O)C(F)(F)F [AZD4320] + CCN(CCO)CCCOc1ccc2c(Nc3cc(CC(=O)Nc4cccc(F)c4)[nH]n3)ncnc2c1 [AZD2811] (first compound max 1 µM, 7x7, partner max 1 µM) ... -0.0333

Hi! Can you tell me Bliss excess for each of these molecules?
1. CC(=O)Nc1cccc(-n2c(=O)n(C3CC3)c(=O)c3c(Nc4ccc(I)cc4F)n(C)c(=O)c(C)c32)c1 [Trametinib] + Cc1nc(-c2cn3c(n2)-c2ccc(-c4cnn(C(C)(C)C(N)=O)c4)cc2OCC3)n(C(C)C)n1 [Taselisib] (first compound max 1 µM, 7x7, partner max 10 µM)
2. C=CCn1c(=O)c2cnc(Nc3ccc(N4CCN(C)CC4)cc3)nc2n1-c1cccc(C(C)(C)O)n1 [AZD1775] + C[C@@H]1COCCN1C2=NC(=NC(=C2)C3(CC3)[S@](=N)(=O)C)C4=C5C=CNC5=NC=C4 [AZD6738] (first compound max 1 µM, partner max 10 µM)
3. COc1cc2ncnc(Nc3ccc(F)c(Cl)c3)c2cc1OCCCN1CCOCC1 [Gefitinib] + CC(C)n1c(=O)n(C)c2cnc3cc(F)c(-c4ccc(OCCCN5CCCCC5)nc4)cc3c21 [AZD1390] (first compound max 10 µM, 7x7, partner max 0.3 µM)
4. Cc1cc2ncnn2cc1Nc1ncc2c(n1)n(C1CCOCC1)c(=O)n2C [AZD7648] + C=CCn1c(=O)c2cnc(Nc3ccc(N4CCN(C)CC4)cc3)nc2n1-c1cccc(C(C)(C)O)n1 [AZD1775] (first compound max 10 µM, partner max 1 µM)
5. CN(CCO)CC[C@H](CSc1ccccc1)Nc1ccc(S(=O)(=O)NC(=O)c2ccc(N3CCC([C@@H](O)c4ccccc4-c4ccc(Cl)cc4)CC3)cc2)cc1S(=O)(=O)C(F)(F)F [AZD4320] + Cn1cnc2c(F)c(Nc3ccc(Br)cc3Cl)c(C(=O)NOCCO)cc21 [Selumetinib] (first compound max 1 µM, 7x7, partner max 3 µM)
6. CCc1c2c(nc3ccc(O)cc13)-c1cc3c(c(=O)n1C2)COC(=O)[C@]3(O)CC [SN-38] + O=C(c1cc(Cc2n[nH]c(=O)c3ccccc23)ccc1F)N1CCN(C(=O)C2CC2)CC1 [Olaparib] (first compound max 0.3 µM, 7x7, partner max 10 µM)
7. Cn1cnc2c(F)c(Nc3ccc(Br)cc3Cl)c(C(=O)NOCCO)cc21 [Selumetinib] + CC(C)n1c(=O)n(C)c2cnc3cc(F)c(-c4ccc(OCCCN5CCCCC5)nc4)cc3c21 [AZD1390] (first compound max 10 µM, 7x7, partner max 0.3 µM)

Return:
[0.107, -0.0039, -0.0597, -0.0064, 0.0717, 0.0105, 0.0387]

Hi! Can you tell me Bliss excess for each of these molecules?
1. CC(=O)c1c(C)c2cnc(Nc3ccc(N4CCNCC4)cn3)nc2n(C2CCCC2)c1=O [Palbociclib] + CN(CC[C@H](CSC1=CC=CC=C1)NC2=C(C=C(C=C2)S(=O)(=O)NC(=O)C3=CC=C(C=C3)N4CCC(CC4)[C@H](C5=CC=CC=C5C6=CC=C(C=C6)Cl)O)S(=O)(=O)C(F)(F)F)CCO [AZD4320] (first compound max 10 µM, 7x7, partner max 1 µM)
2. CC(=O)c1c(C)c2cnc(Nc3ccc(N4CCNCC4)cn3)nc2n(C2CCCC2)c1=O [Palbociclib] + CC1(C)CCC(CN2CCN(c3ccc(C(=O)NS(=O)(=O)c4ccc(NCC5CCOCC5)c([N+](=O)[O-])c4)c(Oc4cnc5[nH]ccc5c4)c3)CC2)=C(c2ccc(Cl)cc2)C1 [Venetoclax] (first compound max 10 µM, 7x7, partner max 1 µM)
3. COc1cccc(OCCCN)c1-c1cc(Nc2cnc(C#N)cn2)n[nH]1 [Prexasertib] + O=C(c1cc(Cc2n[nH]c(=O)c3ccccc23)ccc1F)N1CCN(C(=O)C2CC2)CC1 [Olaparib] (first compound max 1 µM, 7x7, partner max 10 µM)

Return:
1. -0.0614
2. -0.0521
3. -0.0339
